Test system: patient with systemic lupus erythematosus
Experiment: Previous therapies for pain in extremities of the lupus patient
Type: in vivo, human
Details: previous therapies before degarelix
Recorded endpoint: effect on pain in extremities

Example cases with answers are listed next.
CN(C)CCC=C1c2ccccc2CCc2ccccc21: no effect
CC(C)C[C@H](CN)CC(=O)O: no effect
COc1c(C)c2c(c(O)c1C/C=C(\C)CCC(=O)OCCN1CCOCC1)C(=O)OC2 [mycophenolate mofetil]: not effective
Cn1cnc([N+](=O)[O-])c1Sc1ncnc2nc[nH]c12: not effective
NCC1(CC(=O)O)CCCCC1: no effect

Incoming: What value of measured effect on pain in extremities is listed for CN(Cc1cnc2nc(N)nc(N)c2n1)c1ccc(C(=O)N[C@@H](CCC(=O)O)C(=O)O)cc1 [methotrexate] ?
Outgoing: not effective

Value source: patent US10821152B2
